TESTED ON: T1, Peptide I (dog PAR-2) (Dog (Canis familiaris))
T1 peptide: GTNRTSKGRSLIGKTDSS
TEST NAME: SPR, antibody captured
OBSERVATION TYPE: Kd

binder="H4H579P (antibody, human IgG4, V domains shown, also called H1H579P variable regions) VH: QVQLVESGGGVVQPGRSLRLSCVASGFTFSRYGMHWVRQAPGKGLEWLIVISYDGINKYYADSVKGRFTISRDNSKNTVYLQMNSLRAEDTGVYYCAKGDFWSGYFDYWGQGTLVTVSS VL: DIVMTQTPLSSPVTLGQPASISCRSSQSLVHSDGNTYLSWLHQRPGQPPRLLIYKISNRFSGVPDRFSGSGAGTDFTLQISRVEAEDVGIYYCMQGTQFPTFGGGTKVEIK" measured_result="311 nM"
binder="H4H581P (antibody, human IgG4, V domains shown, also called mAb H4H581P; H1H581P variable regions) VH: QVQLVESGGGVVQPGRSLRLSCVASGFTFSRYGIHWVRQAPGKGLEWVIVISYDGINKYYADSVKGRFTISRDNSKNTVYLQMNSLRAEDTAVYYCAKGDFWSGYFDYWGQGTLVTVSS VL: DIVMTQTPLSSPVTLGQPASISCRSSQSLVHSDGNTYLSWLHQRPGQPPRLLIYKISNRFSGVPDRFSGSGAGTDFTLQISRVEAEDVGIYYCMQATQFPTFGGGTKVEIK" measured_result="143 nM"
binder="H4H583P (antibody, human IgG4, V domains shown, also called H1H583P variable regions) VH: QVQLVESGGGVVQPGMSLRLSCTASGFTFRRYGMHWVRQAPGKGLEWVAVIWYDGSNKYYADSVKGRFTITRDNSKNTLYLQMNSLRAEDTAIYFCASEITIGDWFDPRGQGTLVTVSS VL: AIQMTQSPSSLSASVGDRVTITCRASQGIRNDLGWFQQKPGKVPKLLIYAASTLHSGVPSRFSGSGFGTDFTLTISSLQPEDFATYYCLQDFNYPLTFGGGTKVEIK" measured_result="320 nM"
binder="H4H585P (antibody, human IgG4, V domains shown, also called H1H585P variable regions) VH: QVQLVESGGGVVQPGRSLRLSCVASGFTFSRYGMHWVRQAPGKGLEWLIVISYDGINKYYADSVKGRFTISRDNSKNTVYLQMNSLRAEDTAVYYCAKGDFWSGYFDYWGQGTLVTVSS VL: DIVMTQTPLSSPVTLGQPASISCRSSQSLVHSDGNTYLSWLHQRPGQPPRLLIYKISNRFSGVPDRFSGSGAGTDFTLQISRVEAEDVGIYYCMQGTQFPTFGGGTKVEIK" measured_result="372 nM"

All values here come from patent US20110059095A1.
